# Kd listing for each entry below
molecular target: HLA-A*11:01; assay: IEDB peptide-MHC binding, purified MHC/competitive/radioactivity; filed as Kd, often an IC50 or EC50 that approximates it; bounds were set here for any values at or beyond the usual limits of such assays; conditions: source organism: Dengue virus 2 Jamaica/1409/1983
experimental.endpoint: Kd (nM)

[[record]]
sequence_string = "ATTFVTPMLR"
result_units = "nM"
measured_number = 95.2

[[record]]
sequence_string = "ETCVYNMMGK"
result_units = "nM"
measured_number = 1170

[[record]]
sequence_string = "YSMCTGKFK"
result_units = "nM"
measured_number = 550

[[record]]
sequence_string = "MISRMLINR"
result_units = "nM"
measured_number = 258


* * *

// Kd lookup, one value per entry
target: HLA-A*68:01; assay: IEDB peptide-MHC binding, purified MHC/competitive/radioactivity; filed as Kd, often an IC50 or EC50 that approximates it; bounds were set here for any values at or beyond the usual limits of such assays; settings: source organism: Mammarenavirus guanaritoense
experimental.endpoint: Kd (µM)

[[record]]
sequence_string = "PCPLPHRLDR"
experimental_endpoint = "Kd"
comparator = "≥"
measured_number = 31.1

[[record]]
sequence_string = "NSYSLIRLSH"
experimental_endpoint = "Kd"
comparator = "="
measured_number = 10.2

[[record]]
sequence_string = "NYTRFWYINH"
experimental_endpoint = "Kd"
comparator = "="
measured_number = 4.14


* * *

biological target: HLA-B*08:02; assay: IEDB peptide-MHC binding, purified MHC/direct/fluorescence; filed as Kd, often an IC50 or EC50 that approximates it; bounds were set here for any values at or beyond the usual limits of such assays; conditions: source organism: Burkholderia mallei ATCC 23344
pKd: −log10 of the molar value.
experimental.endpoint: pKd

[[record]]
sequence_string = "FLRRRRAAL"
measured_number = 7.15


* * *

biological target: HLA-B*07:02; experiment: IEDB peptide-MHC binding, purified MHC/direct/fluorescence; filed as Kd, often an IC50 or EC50 that approximates it; bounds were set here for any values at or beyond the usual limits of such assays; conditions: source organism: Escherichia coli O157:H7
experimental.endpoint: Kd (µM)

[[record]]
sequence_string = "IAIPAHVRL"
measured_number = 8.52


* * *

target: HLA-A*33:01; experiment: IEDB peptide-MHC binding, purified MHC/competitive/radioactivity; filed as Kd, often an IC50 or EC50 that approximates it; bounds were set here for any values at or beyond the usual limits of such assays; conditions: source organism: Dengue virus 4 Dominica/814669/1981
experimental.endpoint: Kd (nM)

[[record]]
sequence_string = "MFGGVSWMIR"
measured_number = 14.8


* * *

target: HLA-A*11:01; assay: IEDB peptide-MHC binding, purified MHC/direct/fluorescence; filed as Kd, often an IC50 or EC50 that approximates it; bounds were set here for any values at or beyond the usual limits of such assays; conditions: source organism: Francisella tularensis subsp. holarctica LVS
pKd: −log10 of the molar value.
experimental.endpoint: pKd

[[record]]
sequence_string = "KLYSYGIGY"
system_name = "HLA-A*11:01"
measured_number = 7.12


* * *

target: HLA-A*26:01; test: IEDB peptide-MHC binding, purified MHC/direct/fluorescence; filed as Kd, often an IC50 or EC50 that approximates it; bounds were set here for any values at or beyond the usual limits of such assays; conditions: source organism: Vibrio cholerae
pKd: −log10 of the molar value.
experimental.endpoint: pKd

[[record]]
sequence_string = "RPRIRLSAP"
result = "≤ 4.70"

